The measurements presented in this section are drawn from PubChem BioAssay.

Listed here are molecules together with their documented cell count.
Assay: sensitizers of A549 cells to miR-34 induction, primary screen, imaging, A549 dox-inducible miR-34, nuclei and caspase counts (AID 1347080)
Settings: A549 miR-34 inducible, Hoechst nuclei count, 48 h; measured here: total cells with miR-34 induction; stronger effect = lower value
Peptide text beside a SMILES is read from it.
Just the number.

Record excerpt, results attached:
Molecule: NC(=O)Cc1cccc(C(=O)c2ccccc2)c1N
cell count: 7400
--
Molecule: C[C@H](CCC(=O)O)[C@H]1CC[C@H]2[C@@H]3CC[C@@H]4C[C@H](O)CC[C@]4(C)[C@H]3CC[C@]12C
cell count: 8840

Please look up its cell count: CC(=O)N[C@@H](CC(=O)O)C(=O)N[C@@H](CCC(=O)O)C(=O)O (Ac-Asp-Glu-OH) 8810

Return reported cell count; argument: CN1CCN(c2c(F)cc3c(=O)c(C(=O)O)cn(CCF)c3c2F)CC1 9860

Fill in the blank: the reported cell count of C#Cc1cccc(Nc2ncnc3cc(OCCOC)c(OCCOC)cc23)c1 is ____. 4550

Suppose we examine the molecule CCCCN(CCCC)CC(O)c1cc(Cl)cc2c1-c1ccc(Cl)cc1/C2=C/c1ccc(Cl)cc1 (stereo not given) ; what cell count value has been reported? 8950

Given the entry FC(F)c1nc2ccccc2n1-c1nc(N2CCOCC2)nc(N2CCOCC2)n1 , report its measured cell count. 1920

What cell count value was documented for this molecule, COc1ccccc1O ? 10200

---

Target: 6-phosphogluconate dehydrogenase, decarboxylating (Homo sapiens) (UniProt P52209)
Sequence (P52209 whole entry, looked up): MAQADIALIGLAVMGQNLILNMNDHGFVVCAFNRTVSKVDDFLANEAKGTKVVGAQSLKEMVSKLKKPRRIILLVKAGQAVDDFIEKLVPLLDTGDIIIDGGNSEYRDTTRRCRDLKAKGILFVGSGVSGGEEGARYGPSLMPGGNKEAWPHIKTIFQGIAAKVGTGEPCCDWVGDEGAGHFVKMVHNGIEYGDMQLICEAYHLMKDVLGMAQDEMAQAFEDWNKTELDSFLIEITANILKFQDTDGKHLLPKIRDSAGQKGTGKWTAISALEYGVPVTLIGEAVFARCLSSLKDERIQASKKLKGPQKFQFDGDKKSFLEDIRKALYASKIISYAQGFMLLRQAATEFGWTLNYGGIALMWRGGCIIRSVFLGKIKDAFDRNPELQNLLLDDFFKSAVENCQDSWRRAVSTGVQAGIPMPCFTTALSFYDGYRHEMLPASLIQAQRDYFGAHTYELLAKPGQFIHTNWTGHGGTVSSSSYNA
Assay: 6PGD enzyme inhibitors, primary screen, biochemical, human, recombinant enzyme, NADPH absorbance (AID 1159550)
Conditions: recombinant 6PGD, NADPH absorbance 341 nm; at 10 µM; stronger effect = higher value
Each entry below lists one item and its recorded inhibition value.
Your answer is read as %, so omit the unit and give the number.

The examples below pair each entry with its known result.
Compound: CC1(C)C=Cc2c(cc3occ(-c4ccc5c(c4)OCO5)c(=O)c3c2O)O1
inhibition, %: -4.68
--
Compound: Nc1nc2ncc(=O)[nH]c2c(=O)[nH]1
inhibition, %: -1.84
--
Compound: COC(=O)C[C@H]1C(C)(C)C(=O)[C@@H]2CC3=C4CC(OC)O[C@@H](c5ccoc5)[C@]4(C)CCC3[C@@]1(C)C2=O (stereo partly drawn)
inhibition, %: -2.67

Look up inhibition with 6-phosphogluconate dehydrogenase, decarboxylating (Homo sapiens) (UniProt P52209) for this compound: C[C@H](C[C@@H](O)[C@@H]1OC1(C)C)[C@@H]1CC[C@]2(C)C3=CC[C@H]4C(C)(C)C(=O)CC[C@]4(C)[C@H]3CC[C@@]12C -0.309

---

// reported inhibition for each item listed
Biological target: 6-phosphogluconate dehydrogenase, decarboxylating (Homo sapiens) (UniProt P52209)
Assay: 6PGD enzyme inhibitors, primary screen, biochemical, human, recombinant enzyme, NADPH absorbance (AID 1159550)
Conditions: recombinant 6PGD, NADPH absorbance 341 nm; at 10 µM; stronger effect = higher value
Where a SMILES comes first, the peptide text is derived from it.
Enter your answer as a number in %; do not include the unit.

Compound: NC(C(=O)O)C(O)C(=O)O (stereo not given)
Target system: 6-phosphogluconate dehydrogenase, decarboxylating (Homo sapiens) (UniProt P52209)
inhibition / %: 17.7

inhibition lookup needed for COc1ccc(-c2coc3c(O)c(OC)ccc3c2=O)cc1 , thanks. 11.6

Param item = CC(C)C[C@H](NC(=O)[C@H](C)N)C(=O)O (H-Ala-Leu-OH) ; retrieve measured inhibition. -6.83

State the recorded inhibition for this entry: CC1(C)CC[C@]2(C(=O)O)CC[C@]3(C)C(=CC[C@@H]4[C@@]5(C)CC[C@H](O)[C@@](C)(CO)[C@@H]5CC[C@]43C)[C@@H]2C1 -1.09

Find the recorded inhibition belonging to COC1=CC(=O)C(C(=O)c2ccccc2)=CC1=O and report it. -0.278
